# test_system: Ubiquitin carboxyl-terminal hydrolase 30 (Homo sapiens)
# measurement_protocol: inhibitors of ubiquitin-specific protease 30 deubiquitylating enzyme, concentration dependence, in vitro biochemical, validation of primary hits (AID 1645865)
# experimental_conditions: purified USP30, Ub-rhodamine cleavage, fluorescence, 2 h
The source made the active and inactive calls.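 How the source made its calls: active means maximal inhibition of the USP30 enzyme reaching 30% or more across the dose series; inactive means the rest.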
Labels: 1 (yes) (active), 0 (no) (inactive)

compound=Nc1nc(-c2ccc[nH]2)cs1 class_label="0 (no)"
compound=O=C(Nc1ccccc1)c1cn(-c2cc(N3CCCC3)ncn2)cn1 class_label="0 (no)"
compound=Cn1c(CCN2CCCC2)nc2cc(NC(=O)c3ccccc3)ccc21 class_label="0 (no)"
compound=O=S(=O)(c1ccccc1Cl)N1CCN(c2ccc3nnc(-c4ccco4)n3n2)CC1 class_label="0 (no)"
compound=Cc1sc(-c2cccnc2)nc1OC(=O)c1ccc(Cl)c(Cl)c1 class_label="0 (no)"
compound=O=C(CSc1ncnc2c1oc1ccccc12)Nc1ccc2c(c1)OCCO2 class_label="1 (yes)"
compound=Cc1nnc(NC(=O)C2CCN(c3ccc(S(N)(=O)=O)cc3[N+](=O)[O-])CC2)o1 class_label="1 (yes)"
compound=Cc1noc(NS(=O)(=O)c2ccc(NC(=O)CSc3ccc4ccccc4c3)cc2)c1C class_label="0 (no)"
compound=COc1ccc(NC(=O)Cn2cc(C(=O)c3ccc(C)cc3)c(=O)c3ccccc32)cc1 class_label="1 (yes)"
compound=CCOC(=O)CSc1nnc(-c2cnn(-c3ccccc3)c2N)o1 class_label="1 (yes)"
compound=O=C(COc1ccc(S(=O)(=O)N2CCOCC2)cc1)N1CCC(Cc2ccccc2)CC1 class_label="1 (yes)"
compound=Cc1cc(C)n2nc(CNc3cccc(Cl)c3)nc2n1 class_label="0 (no)"
compound=O=C(Cn1c(=O)n(Cc2ccc(F)cc2)c(=O)c2sccc21)Nc1cccc(Cl)c1 class_label="1 (yes)"
compound=CCn1cc(NC(=O)CN2CCC3(CC=CCOC3)CC2)c(C)n1 class_label="0 (no)"
compound=COc1cc(NC(=O)Cn2nc(-c3ccc(F)cc3)ccc2=O)ccc1-n1cnnn1 class_label="1 (yes)"
compound=O=C(CCc1c[nH]c2ccccc12)Nc1ccc(N2CCOCC2)cc1 class_label="1 (yes)"
compound=NC(=O)Cn1c(=O)n(Cc2ccc(C(=O)NC3CCCC3)cc2)c(=O)c2ccccc21 class_label="0 (no)"
compound="COc1ccc(C(=O)N2CCCC3(C2)Nc2cccnc2NC3=NC2CCCC2)cn1 (configuration not stated)" class_label="0 (no)"
compound=COc1cc(Cl)ccc1C(=O)Nc1cccc(-n2cnnn2)c1C class_label="1 (yes)"
compound=O=[N+]([O-])c1ccccc1C(c1c[nH]c2ccccc12)c1c[nH]c2ccccc12 class_label="0 (no)"
compound=N#Cc1ccc(Cl)cc1NC(=O)COc1cccnc1[N+](=O)[O-] class_label="0 (no)"
compound=O=C(COC(=O)c1n[nH]c2ccccc12)Nc1ccc(N2CCCCC2)cc1 class_label="1 (yes)"
